Recorded values, source paper PMC4786809.

measurementDescription: Plasma concentrations and pharmacokinetics after intravenous bolus of C3G (NCA and two-compartment model)
Assay type: in vivo, Wistar rats
protocolConditions: male, Wistar, rat, plasma, iv, 668 nmol, non-compartmental analysis; read-out: MRT (converted)

molecule: OC[C@H]1O[C@@H](Oc2cc3c(O)cc(O)cc3[o+]c2-c2ccc(O)c(O)c2)[C@H](O)[C@@H](O)[C@@H]1O [C3G, Cyanidin-3-O-β-glucoside]
scaleUnit: min
MRT: 8.72

* * *

measurementDescription: Plasma concentrations and pharmacokinetics after intravenous bolus of C3G (NCA and two-compartment model)
Assay type: in vivo, Wistar rats
protocolConditions: male, Wistar, rat, plasma, intravenous, 668 nmol, plasma; read-out: Mean half-life
assayReadout: half-life

compound: OC[C@H]1O[C@@H](Oc2cc3c(O)cc(O)cc3[o+]c2-c2ccc(O)c(O)c2)[C@H](O)[C@@H](O)[C@@H]1O [C3G, Cyanidin-3-O-β-glucoside]
result: < 8 min
